Biological target: Avi-KRAS G12D (1-169) GppNHp/RAF1 RBD-3xFLAG (52-151) (Homo sapiens, UniProt P01116, G12D)
Construct: Avi-KRAS G12D (1-169)
Sequence (P01116 1-169 isoform P01116-2 G12D): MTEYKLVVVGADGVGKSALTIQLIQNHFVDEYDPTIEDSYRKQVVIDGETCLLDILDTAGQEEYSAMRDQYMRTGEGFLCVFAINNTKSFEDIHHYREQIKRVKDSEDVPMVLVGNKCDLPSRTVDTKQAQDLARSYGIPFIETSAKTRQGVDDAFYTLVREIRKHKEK
Assay: Raf1-KRAS G12D-GppNHP disruption HTRF assay (Biological Example 1)
Assay type: binding
Settings: KRAS G12D-GppNHp/RAF1 RBD HTRF
quantity name: IC50

Some molecules with known IC50 results, for comparison:
CC[C@@H]1[C@H](N(C)c2nc(OC[C@@]34CCCN3C[C@H](F)C4)nc3c(F)c(-c4ccc(F)c5sc(N)c(C#N)c45)c(C(F)(F)F)cc23)CCN1C(=O)C(C)C [Compound 433]
1000 to 10000 nM
CCN(c1nc(OC[C@@]23CCCN2C[C@H](F)C3)nc2c(F)c(-c3ccc(F)c4sc(N)c(C#N)c34)c(Cl)cc12)[C@@H]1CCN(C(=O)C2CC2)[C@@H]1C [Compound 337]
100 to 1000 nM

We now examine a further molecule.
**Query** Read off the recorded IC50 for C[C@@H]1[C@H](N(C)c2nc(OC[C@@]34CCCN3C[C@H](F)C4)nc3c(F)c(-c4ccc(F)c5sc(N)c(C#N)c45)c(C(F)(F)F)cc23)CC(=O)N1C [Compound 440]
**Result** 100 to 1000 nM
